# System: hSMG1 mRNA
# protocol: Drug library screen, hSMG1 mRNA quantitation by branched DNA assay in HeLa cells
# Format: cell-based, human
# test-settings: 24 h, drug 0.25 μg/mL, triplicate
Can you tell me hSMG1 Expression (ratio of hSMG1 Response to Actin Response) for the items I'm about to list?
Please give the numeric answer without any surrounding text.

Data request: Using the record for C[C@H]1O[C@@H](O[C@H]2[C@@H](O)C[C@H](O[C@H]3[C@@H](O)C[C@H](O[C@H]4CC[C@@]5(C)[C@H](CC[C@@H]6[C@@H]5C[C@@H](O)[C@]5(C)[C@@H](C7=CC(=O)OC7)CC[C@]65O)C4)O[C@@H]3C)O[C@@H]2C)C[C@H](O)[C@@H]1O , report its hSMG1 Expression (ratio of hSMG1 Response to Actin Response).
Data returned: 8.0

Data request: Now consider C[C@]12CC[C@@H]3c4ccc(O)cc4CC[C@H]3[C@@H]1CC[C@@H]2O .
Data returned: 1.7

Data request: Now consider Nc1nc2nc[nH]c2c(=S)[nH]1 .
Data returned: 2.2

Data request: Now consider O=C(CCCN1CCC(O)(c2ccc(Cl)cc2)CC1)c1ccc(F)cc1 .
Data returned: 1.2

Data request: Now consider C[C@H]1O[C@@H](O[C@H]2[C@@H](O)C[C@H](O[C@H]3[C@@H](O)C[C@H](O[C@H]4CC[C@@]5(C)[C@H](CC[C@@H]6[C@@H]5CC[C@]5(C)[C@@H](C7=CC(=O)OC7)CC[C@]65O)C4)O[C@@H]3C)O[C@@H]2C)C[C@H](O)[C@@H]1O .
Data returned: 8.3
